target: Opioid receptor (Mus musculus, UniProt P42866+P32300+P33534); test: Tested for displacement of radioligand [3H]-Naloxone from opiate receptor; assay type: protein assay
The label is T for IC50 below 0.9 µM and F for IC50 equal to or exceeding 0.9 µM.

1) CCCCN1CCC(C(=O)CC)(c2cccc(O)c2)CC1    F

-- ask Please indicate whether the reported IC50 of CCOC(=O)C1(c2ccccc2)CCN(CC)CC1 is strictly below 0.9 µM.
-- reply F

-- ask Report whether reported IC50 is lower than 0.9 µM (strictly) for CCCCCCCN1CCC(C(=O)CC)(c2cccc(O)c2)CC1
-- reply F

-- ask # check: IC50 < 0.9 µM for CCCCCCCCN1CCC(C(=O)OCC)(c2ccccc2)CC1
-- reply T

###

test: Ionization at 37 degree C; format: ADME
measured-attribute: pKa
Give bare numbers.

In the examples that follow, each entry is paired with its recorded pKa.
1. CCN1CCN(c2cccc3c2OCCO3)CC1    8
2. CCCCN1CCN(c2cccc3ccoc23)CC1    7.77
3. CCCCN1CCN(c2cccc3c2OCCO3)CC1    8.06
4. CCCN1CCN(c2cccc3ccoc23)CC1    7.84
5. CCCCCN1CCN(c2cccc3c2OCCO3)CC1    8.06
6. CCCN1CCN(c2cccc3c2OCCO3)CC1    8.02
7. CCN1CCN(c2cccc3ccoc23)CC1    7.79

Lab note: next molecule to report on.
-- ask Write down pKa measured for item CN1CCN(c2cccc3c2OCCO3)CC1
-- reply 7.77

The measured values listed here are drawn from ChEMBL document CHEMBL1126802.
